Recorded Cellular binding assay [RFU] values for a group of binders are listed next.
- EXPERIMENTAL_SYSTEM: T1, CD27 expressed on the cell surface of HT1080_CD27 cells (human, UniProt P26842 20-260)
- T1 construct: whole, on cells; species not restated for the HT1080 transfectant
- T1 sequence (looked up): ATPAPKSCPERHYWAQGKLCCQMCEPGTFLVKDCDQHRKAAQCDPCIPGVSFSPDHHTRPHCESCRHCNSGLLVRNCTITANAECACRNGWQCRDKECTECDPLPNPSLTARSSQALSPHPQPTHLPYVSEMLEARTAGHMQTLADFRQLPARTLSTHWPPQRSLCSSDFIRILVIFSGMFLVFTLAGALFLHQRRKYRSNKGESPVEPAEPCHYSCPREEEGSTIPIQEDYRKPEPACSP
- EXPERIMENTAL_PROTOCOL: HT1080_CD27 cells, imaging; further: test concentration or dose not given here
VALUE_TYPE: Cellular binding assay [RFU] (RFU)

1. P018.S.09.A.G06 (antibody, V domains shown, V regions on human Ig constant parts; also called AB27_159) VH: QSVEESGGRLVTPGTPLTLTCTASGFSLSNYHMSWVRQAPGKGLEWIGIIYAGSDSTWYASWAKGRFTISKTSTTVDLKITSPTTEDTATYFCARQPGGGASDTQLDLWGQGTLVTVSS VL: AAVLTQTASPVSAAVGGTVTINCQSSQNIFDNNQLSWFQHKSGQSPKLLIYRASTLASGVPSRFKGSGSGTQFTLTISDVQSDDAATYYCLGGYSSSSDTVFGGGTEVVVK; 338
2. P018.S.08.A.F01 (antibody, V domains shown, V regions on human Ig constant parts; also called AB27_140) VH: QSVEESGGRLVTPGTPLTLTCTVSGSDISGYALGWVRQAPGKGLEYIGVIAADGNAYYASWAKGRFTISRTSTTVDLKMTSLTTEDTATYFCARGYSSGWGTYGYFDLWGQGTLVTVSS VL: DIVMTQTPASVSAAVGGTVTIKCQASEDIYSYLAWYQQKPGQPPKLLIYRASTLESGVPSRFKGSGSGTQFTLTISDLESADAATYYCQSYYYSHSTTYSNVFGGGTEVVVK; 395
3. P018.S.10.A.C02 (antibody, V domains shown, V regions on human Ig constant parts; also called AB27_171) VH: QSVEESGGRLVTPGTPLTLTCTVSGIDLSNYAMSWVRQTPGKGLEWIGAIGIGGNTYYASWAKGRFTISRTSTMVDLKVASPTPEDTATYFCARHAGAGVVNWLDLWGQGTLVTVSS VL: DVVMTQTPASVSEPVGGTVTIKCQASQSIGSNLAWYQQKPGQPPKLLIYAASDLASGVPSRFSGSGSGTEFTLTISGVQSDDAATFYCQTYGSGSFSSFNLFGGGTEVVVK; 238

Origin of the recorded values: patent US20210253725A1
